Target Under Test: AP-2 complex subunit beta (Homo sapiens) (UniProt P63010)
Sequence (P63010 whole entry, looked up, one chain of several): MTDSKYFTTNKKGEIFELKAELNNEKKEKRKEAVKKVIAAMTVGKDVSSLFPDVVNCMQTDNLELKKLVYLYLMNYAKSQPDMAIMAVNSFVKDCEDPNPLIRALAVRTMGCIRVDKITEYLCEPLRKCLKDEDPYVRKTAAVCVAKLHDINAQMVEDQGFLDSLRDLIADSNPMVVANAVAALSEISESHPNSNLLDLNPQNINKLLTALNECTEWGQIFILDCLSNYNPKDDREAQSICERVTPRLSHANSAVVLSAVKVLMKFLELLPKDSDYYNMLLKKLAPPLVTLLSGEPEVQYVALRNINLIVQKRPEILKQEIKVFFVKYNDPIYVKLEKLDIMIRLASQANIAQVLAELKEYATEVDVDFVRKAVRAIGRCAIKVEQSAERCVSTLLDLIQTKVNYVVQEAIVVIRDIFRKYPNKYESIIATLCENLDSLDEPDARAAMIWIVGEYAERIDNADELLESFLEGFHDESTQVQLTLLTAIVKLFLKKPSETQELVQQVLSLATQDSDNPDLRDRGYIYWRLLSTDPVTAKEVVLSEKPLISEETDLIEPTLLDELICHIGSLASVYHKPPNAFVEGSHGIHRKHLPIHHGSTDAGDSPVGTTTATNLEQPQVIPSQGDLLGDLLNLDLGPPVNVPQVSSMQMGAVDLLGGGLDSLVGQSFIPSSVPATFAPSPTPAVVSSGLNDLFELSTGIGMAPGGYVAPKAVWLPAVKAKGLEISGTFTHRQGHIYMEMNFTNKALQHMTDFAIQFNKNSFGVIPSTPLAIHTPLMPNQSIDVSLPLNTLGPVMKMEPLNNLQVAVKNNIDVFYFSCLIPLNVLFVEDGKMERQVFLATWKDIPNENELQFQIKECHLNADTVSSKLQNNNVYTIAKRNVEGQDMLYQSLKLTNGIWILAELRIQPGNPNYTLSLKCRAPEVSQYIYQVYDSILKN
Experiment Notes: inhibitors of arrestin peptide binding to AP2, pilot screen, biochemical, validation set, GST-AP2 beads, flow cytometry (AID 504541);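 also: AP2 carries R879A mutation and is captured from E. coli lysate; bead-bound FITC arrestin peptide fluorescence measuring arrestin peptide binding to AP2; 0% = DMSO wells and 100% = excess unlabeled arrestin peptide control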
Test Settings: FITC arrestin peptide, at 10 µM, stronger effect = higher value, AP2 beta2 appendage fragment, R879A mutant
Result Type: inhibition (%)
Please respond with the number in % and leave the unit unwritten.

Would you please look over these solved cases?
{"Molecule": "O=C(NC(CO)Cc1ccc([N+](=O)[O-])cc1)C(Cl)Cl (stereo not given)", "Measurement Units": "%", "Endpoint Result": 0.05}
{"Molecule": "O=C(NNC(=O)c1cccs1)c1ccco1", "Measurement Units": "%", "Endpoint Result": -10.8}
{"Molecule": "COc1cc([C@@H]2c3cc4c(cc3[C@H](O)[C@H]3COC(=O)[C@H]23)OCO4)cc(OC)c1OC", "Measurement Units": "%", "Endpoint Result": -1.6}
{"Molecule": "COc1ccc(CN(CCC(c2ccc(F)cc2)C2CCOC(C)(C)C2)C(=O)c2ccco2)cc1 (stereo not given)", "Measurement Units": "%", "Endpoint Result": -11.3}
{"Molecule": "CC1(C)CC(=O)c2cc(O)ccc2O1", "Measurement Units": "%", "Endpoint Result": 10.6}

QUERY: Give the measured inhibition of Cc1cnc(C(=O)NCCc2ccc(S(=O)(=O)NC(=O)NC3CCCCC3)cc2)cn1 .
RESULT: -11.4

QUERY: Entry to check: COc1ccc2oc(=O)c(C(=O)N3CCN(c4ccccc4)CC3)cc2c1
RESULT: 10.5

QUERY: What about this molecule? COc1ccc(CCNC(=O)C(=O)Nc2ccc3c(c2)OCO3)cc1OC
RESULT: -11.2

QUERY: Query CCc1cc2c3c(c(=O)oc2cc1O)CCCC3 next
RESULT: -7.42

QUERY: Check CC(=O)OCC1OC(n2ccc(=O)[nH]c2=O)C(O)C1O (stereo not given) too.
RESULT: -6.88

----------
Experiment Notes: RPL19A-GFP modulators, yeast TOR pathway, confirmation, cell-based, S. cerevisiae, flow cytometry, cherry picks, mother/daughter gates (AID 2270)
Test Settings: S. cerevisiae RPL19A-GFP strain, 3 h, at 10 µM, stronger effect = lower value, 100 = same GFP as DMSO wells
Result Type: GFP response vs DMSO (%)
// note: answer is a bare numeric in %

In the examples that follow, each entry is paired with its recorded GFP response vs DMSO.
{"Structure String": "CCC(=O)Nc1cccc(C(=O)/C=C/c2ccccc2)c1", "Result Type": "GFP response vs DMSO", "Endpoint Result": 102}
{"Structure String": "O=C(COC(=O)/C=C/c1cccs1)Nc1nc(-c2ccccc2)cs1", "Result Type": "GFP response vs DMSO", "Endpoint Result": 101}
{"Structure String": "COc1cccc(-c2noc(-c3cccnc3)n2)c1", "Result Type": "GFP response vs DMSO", "Endpoint Result": 97.2}

QUERY: Record request: GFP response vs DMSO value, item COCc1nnc(NC(=O)c2ccc(S(=O)(=O)N(C)c3ccccc3)cc2)o1
RESULT: 96.8

QUERY: Also check CN1CCSc2ccc(C(=O)Nc3cccc(F)c3)cc21
RESULT: 95.2

QUERY: Same read-out for COc1ccccc1-c1nnc(NC(=O)c2ccc3c(c2)OCO3)s1 ?
RESULT: 106
